Give measured normalized growth for each item. Keep answers brief.
- EXPERIMENT_NOTES: chemical genetic growth profiling, strain panel (AID 1159580);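 also: tested at 20 µM; growth read once vehicle control cultures reached saturation at 30 °C; 1 = growth at the plate median or of vehicle wells; lower values mean less growth of the strain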
- EXPERIMENTAL_CONDITIONS: S. cerevisiae deletion strains, growth OD, locus YJR043C, strain POL32, hits give low values
The whole screen tested about 5,500 compounds, of which about 2,000 (36%) were called active. Not shown: some 18% with an inconclusive outcome. This is one part of the list.
Answers are plain numbers.

Field: example entries. Status: answers known.
>>> result_value("COc1c2c(cc3c1OCO3)CC[N+](C)=C2")
0.99
>>> result_value("CN(C)CC/C=C1/c2ccccc2COc2ccccc21")
1.01
>>> result_value("CC1(C)O[C@@H]2CC3C4C[C@H](F)C5=CC(=O)C=CC5(C)C4C(O)CC3(C)[C@]2(C(=O)CO)O1 (stereo not given in full)")
1.02
>>> result_value("CNCCC=C1c2ccccc2CCc2ccccc21")
1.02

Now for the compound whose normalized growth we want.
[ask] Look up normalized growth: CCCN1C[C@H](CSC)C[C@@H]2c3cccc4[nH]cc(c34)C[C@H]21
[reply] 1

---

- EXPERIMENT_NOTES: chemical genetic growth profiling, strain panel (AID 1159580)
- EXPERIMENTAL_CONDITIONS: S. cerevisiae deletion strains, growth OD, locus YKL190W, strain CNB1, hits give low values
Screen size: about 5,500 compounds; about 2,000 (36%) were called active. Another 18% or so got no clear call; they are omitted. The list shows a part of the results.
READOUT_TYPE: normalized growth
Numbers only.

>>> result_value("COC(=O)C1=C(C)NC(C)=C(C(=O)OCCN(C)Cc2ccccc2)C1c1cccc([N+](=O)[O-])c1 (centres undefined)")
0.99
>>> result_value("CCC/C=C/C=C/[C@@H]1C[C@@H](O)[C@@H](O)C(=O)[C@H]1C=O")
0.964
>>> result_value("Nc1ccc(C(=O)O)c(O)c1")
1.01

Parameters: items (list). Returns: normalized growth for each item.
1. Nc1ccc(C(=O)Oc2ccccc2)c(O)c1
2. Cc1coc2ccccc2c1=O
3. COc1cccc2c1cc([N+](=O)[O-])c1c(C(=O)O)cc3c(c12)OCO3
4. CC(=O)[C@H]1CCC2C3CC=C4C[C@@H](O)CC[C@]4(C)C3CC[C@@]21C (some centres undefined)
5. O=C1c2c(O)ccc(O)c2C(=O)c2c(NCCNCCO)ccc(NCCNCCO)c21
6. CCOC(=O)c1ccc2oc3ccc(O)cc3c(=O)c2c1

[reply]
1. 0.939
2. 1
3. 1.02
4. 0.97
5. 0.998
6. 0.979

---

- EXPERIMENT_NOTES: chemical genetic growth profiling, strain panel (AID 1159580)
- EXPERIMENTAL_CONDITIONS: S. cerevisiae deletion strains, growth OD, locus YMR223W, strain ubp8
Hit rate of the full screen: of about 5,500 compounds, about 2,000 (36%) were called active. Another 18% or so got no clear call; they are omitted. No stated cut-off is given here; in the data, active means normalized growth mostly below about 0.91 (no sharp cut-off); inconclusive means no clear call, values can overlap the other calls; inactive means mostly above about 0.92. The list shows a part of the results.
Hi there, use one of these labels in your reply, thanks! label 1 = active, label 0 = inactive

[ask] Dear colleague, could you share the recorded outcome for COc1cc2cc[n+]3cc4c(OC)c(OC)ccc4cc3c2cc1OC when you have a moment?
[reply] label 0

---

- EXPERIMENT_NOTES: chemical genetic growth profiling, strain panel (AID 1159580)
- EXPERIMENTAL_CONDITIONS: S. cerevisiae deletion strains, growth OD, locus YOR119C, strain RIO1, hits give low values
Among all 5,500 compounds or so, about 2,000 (36%) were called active. Another 18% or so got no clear call; they are omitted. This is one part of the list.
Give measured normalized growth for each item. Keep answers brief.
Give bare numbers.

>>> result_value("COc1ccc(C2CC(c3ccccc3)=Nc3ccccc3S2)cc1OC (stereo unspecified)")
0.949
>>> result_value("O=C1Nc2ccccc2/C1=N/N=C\\c1cc(Br)cc(Br)c1O")
0.184
>>> result_value("Cc1ccc2c(c1)CCCN2CC(=O)N(c1ccccc1)C1CCCCC1")
1

Parameters: items (list). Returns: normalized growth for each item.
1. N#Cc1c(Br)cnn1Cc1cc(C(F)(F)F)cc(C(F)(F)F)c1
2. CC(O)(CNCc1ccc(Cl)cc1)CSc1ccccc1Cl (stereo unspecified)
3. N=c1ccc2nc3c(Cl)c4c(c(Cl)c3oc-2c1S(=O)(=O)O)Nc1ccc(N)c(S(=O)(=O)O)c1O4

[reply]
[0.974, 0.928, 1.08]

---

- EXPERIMENT_NOTES: chemical genetic growth profiling, strain panel (AID 1159580);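 also: tested at 20 µM; growth read once vehicle control cultures reached saturation at 30 °C; 1 = growth at the plate median or of vehicle wells; lower values mean less growth of the strain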
- EXPERIMENTAL_CONDITIONS: S. cerevisiae deletion strains, growth OD, locus YOR083W, strain WHI5 (second series), hits give low values
Out of some 5,500 compounds screened, about 2,000 (36%) were called active. Inconclusive results (about 18%) are left out. The list shows a part of the results.
Give measured normalized growth for each item. Keep answers brief.

Parameters: items (list). Returns: normalized growth for each item.
1. C[N+]1(CCCCC[N+]2(C)CCCC2)CCCC1
2. CCCCC1C(=O)N(c2ccccc2)N(c2ccccc2)C1=O
3. NCCc1ccc(O)c(O)c1
4. O=C(NCC1CCCCN1)c1cc(OCC(F)(F)F)ccc1OCC(F)(F)F (stereo unspecified)
5. Cc1cc(NC(=O)Nc2ccc3c(ccn3C)c2)sn1
6. CC1(NCC(O)COc2cccc3[nH]ccc23)CCC(C(C)(C)NC(=O)CBr)CC1 (stereo unspecified)

[reply]
["1.01 (inactive)", "0.994 (inactive)", "0.984 (inactive)", "1.01 (inactive)", "1.01 (inactive)", "1.02 (inactive)"]

---

- EXPERIMENT_NOTES: chemical genetic growth profiling, strain panel (AID 1159580);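 also: tested at 20 µM; growth read once vehicle control cultures reached saturation at 30 °C; 1 = growth at the plate median or of vehicle wells; lower values mean less growth of the strain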
- EXPERIMENTAL_CONDITIONS: S. cerevisiae deletion strains, growth OD, locus YNL224C, strain SQS1, hits give low values
Among all 5,500 compounds or so, about 2,000 (36%) were called active. Roughly 18% stayed inconclusive and do not appear here. The list shows a part of the results.
Give measured normalized growth for each item. Keep answers brief.
One number for each entry.

Field: example entries. Status: answers known.
>>> result_value("CC(=O)/C(C)=N\\O")
1.01
>>> result_value("CCCCCC[C@@H]([C@@H](C)O)n1cnc2c(N)ncnc21")
0.992
>>> result_value("COC(=O)C1=C(C)NC(C)=C([N+](=O)[O-])C1c1ccccc1C(F)(F)F (centres undefined)")
0.987
>>> result_value("COCCOC(=O)C1=C(C)NC(C)=C(C(=O)OC(C)C)C1c1cccc([N+](=O)[O-])c1 (centres undefined)")
1.01
>>> result_value("CN1C[C@@H](CS(=O)(=O)N(C)C)C[C@@H]2c3cccc4c3c(cn4C)C[C@H]21")
1.01
>>> result_value("CC(=O)C(C)=O")
0.99
>>> result_value("COC(=O)N1CCN(C(=O)Cc2ccc(Cl)c(Cl)c2)C(CN2CCCC2)C1 (centres undefined)")
1
>>> result_value("O=C1CCc2cc(OCCCCc3nnnn3C3CCCCC3)ccc2N1")
1
>>> result_value("O=c1[nH]c(=O)n([C@H]2C[C@H](O)[C@@H](CO)O2)cc1/C=C/Br")
0.994
>>> result_value("Nc1nc(N)c2nc(-c3ccccc3)c(N)nc2n1")
0.995

Parameters: items (list). Returns: normalized growth for each item.
1. COC(=O)C1=C(C)NC(C)=C(C(=O)OCCN(C)Cc2ccccc2)C1c1cccc([N+](=O)[O-])c1 (centres undefined)
2. CCCn1c(=O)[nH]c(=O)c2[nH]cnc21
3. CNCCC=C1c2ccccc2CCc2ccccc21
4. NCCCCNS(=O)(=O)c1cccc2c(Cl)cccc12
5. CN1CCc2ccccc2Cc2[nH]c3ccccc3c2CC1
6. CC(=O)[C@H]1CCC2C3CC=C4C[C@@H](OS(=O)(=O)O)CC[C@]4(C)C3CC[C@@]21C (some centres undefined)
7. N[C@@H](Cn1cc(I)c(=O)[nH]c1=O)C(=O)O
8. O=c1c(-c2ccc(O)cc2)coc2cc(O)cc(O)c12

[reply]
1: 0.993; 2: 1; 3: 1.02; 4: 0.995; 5: 0.996; 6: 0.984; 7: 0.99; 8: 1

[ask] Look up normalized growth: CN1CC(O)C(O)C(O)C1CO (centres undefined)
[reply] 0.992

---

- EXPERIMENT_NOTES: chemical genetic growth profiling, strain panel (AID 1159580);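 also: tested at 20 µM; growth read once vehicle control cultures reached saturation at 30 °C; 1 = growth at the plate median or of vehicle wells; lower values mean less growth of the strain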
- EXPERIMENTAL_CONDITIONS: S. cerevisiae deletion strains, growth OD, locus YLR262C, strain YPT6
In all, about 5,500 compounds went through this assay and about 2,000 (36%) were called active. Another 18% or so got no clear call; they are omitted. Cut-off read from the data, not from the text of the source: active = normalized growth mostly below about 0.91 (no sharp cut-off); inconclusive = no clear call, values can overlap the other calls; inactive = mostly above about 0.92. This is one part of the list.
Hi there, use one of these labels in your reply, thanks! YES (active), NO (inactive)

Use the examples below as a reference point.
>>> group("CCOC(=O)c1c(SC)[nH]c2c(C(F)(F)F)cccc2c1=O")
"NO"
>>> group("COC(=O)C1=C(C)NC(C)=C(C(=O)OC)C1c1ccccc1[N+](=O)[O-]")
"YES"
>>> group("NCC(=O)CCC(=O)O")
"NO"
>>> group("Nc1ccc(C(=O)Oc2ccccc2)c(O)c1")
"YES"
>>> group("COc1cccc(-c2cc(=O)c3cc(OC)ccc3o2)c1")
"NO"

[ask] Dear colleague, could you share the recorded outcome for COc1ccc(-c2cc(=O)c3cc(OC)ccc3o2)cc1 when you have a moment?
[reply] NO

[ask] Dear colleague, could you share the recorded outcome for CC(C)(Oc1ccc(Cl)cc1)C(=O)O when you have a moment?
[reply] NO

[ask] Dear colleague, could you share the recorded outcome for CC(=O)Oc1c(-c2ccccc2)oc2c(CC=C(C)C)c3c(c(OC(C)=O)c2c1=O)C=CC(C)(C)O3 when you have a moment?
[reply] NO
